conditions: in n-hexane, 298.15 K
test readout: solubility (mole fraction)
Response field accepts a number only; no unit should be typed.

Query :: Data request, read-out solubility (mole fraction), for CC(=O)c1ccc(S(C)(=O)=O)cc1
Result :: 0.0077

###

settings: in methanol, 298.15 K
test readout: solubility (mole fraction)

Query :: Need solubility (mole fraction), item CC(=O)c1ccc(S(C)(=O)=O)cc1
Result :: 0.0246

###

settings: in cyclohexane, 283.15 K
test readout: solubility (mole fraction)
Just the number, please, no unit after it.

Query :: What value of solubility (mole fraction) has been recorded for this entry: CC(=O)c1ccc(S(C)(=O)=O)cc1
Result :: 0.0056

###

conditions: in isobutanol, 303.15 K
test readout: solubility (mole fraction)
Give only the figure.

Query :: Entry CC(=O)c1ccc(S(C)(=O)=O)cc1 : reported solubility (mole fraction) = ?
Result :: 0.0142

###

conditions: in methanol, 308.15 K
test readout: solubility (mole fraction)
No unit in the answer, please; the number alone is enough.

Query :: I am curious: what solubility (mole fraction) value has been reported for CC(=O)c1ccc(S(C)(=O)=O)cc1 ?
Result :: 0.0321

###

settings: in isobutanol, 308.15 K
test readout: solubility (mole fraction)
API note: the answer field is a bare number with no unit suffix.

Query :: Entry CC(=O)c1ccc(S(C)(=O)=O)cc1 has what solubility (mole fraction)?
Result :: 0.016

###

details: in ethylene glycol, 328.15 K
test readout: solubility (mole fraction)
# print the numeric value only

Query :: // query solubility (mole fraction) value for entry CC(=O)c1ccc(S(C)(=O)=O)cc1
Result :: 0.0597

###

conditions: in cyclohexane, 303.15 K
test readout: solubility (mole fraction)
Give the value as a plain number.

Query :: Look up solubility (mole fraction): CC(=O)c1ccc(S(C)(=O)=O)cc1
Result :: 0.0109

###

details: in n-hexane, 318.15 K
test readout: solubility (mole fraction)
Kindly provide the number alone.

Query :: Would you kindly share the measured solubility (mole fraction) for CC(=O)c1ccc(S(C)(=O)=O)cc1 ?
Result :: 0.0171

###

details: in n-hexane, 278.15 K
test readout: solubility (mole fraction)
Just the number, please.

Query :: Could you share which solubility (mole fraction) value was measured for CC(=O)c1ccc(S(C)(=O)=O)cc1 ?
Result :: 0.003

###

conditions: in ethylene glycol, 298.15 K
test readout: solubility (mole fraction)
Provide a numeric answer; units are not to be included.

Query :: Query (compound): CC(=O)c1ccc(S(C)(=O)=O)cc1 ; field requested: solubility (mole fraction)
Result :: 0.0273

###

settings: in cyclohexane, 323.15 K
test readout: solubility (mole fraction)
A bare number is all that is needed in reply.

Query :: Item under review: CC(=O)c1ccc(S(C)(=O)=O)cc1 . Reported solubility (mole fraction)?
Result :: 0.0217

###

settings: in isobutanol, 328.15 K
test readout: solubility (mole fraction)
Note: the reply should be a number with no unit written.

Query :: Recorded solubility (mole fraction) of CC(=O)c1ccc(S(C)(=O)=O)cc1 , please.
Result :: 0.0284

###

settings: in ethyl acetate, 283.15 K
test readout: solubility (mole fraction)
I'd appreciate a reply containing only the number, no unit.

Query :: What value of solubility (mole fraction) has been recorded for this entry: CC(=O)c1ccc(S(C)(=O)=O)cc1
Result :: 0.027

###

conditions: in isobutanol, 278.15 K
test readout: solubility (mole fraction)
Enter a number only.

Query :: What measured solubility (mole fraction) goes with CC(=O)c1ccc(S(C)(=O)=O)cc1 ?
Result :: 0.0074
